Target: SERT (Homo sapiens, UniProt P31645)
Sequence (P31645 whole entry): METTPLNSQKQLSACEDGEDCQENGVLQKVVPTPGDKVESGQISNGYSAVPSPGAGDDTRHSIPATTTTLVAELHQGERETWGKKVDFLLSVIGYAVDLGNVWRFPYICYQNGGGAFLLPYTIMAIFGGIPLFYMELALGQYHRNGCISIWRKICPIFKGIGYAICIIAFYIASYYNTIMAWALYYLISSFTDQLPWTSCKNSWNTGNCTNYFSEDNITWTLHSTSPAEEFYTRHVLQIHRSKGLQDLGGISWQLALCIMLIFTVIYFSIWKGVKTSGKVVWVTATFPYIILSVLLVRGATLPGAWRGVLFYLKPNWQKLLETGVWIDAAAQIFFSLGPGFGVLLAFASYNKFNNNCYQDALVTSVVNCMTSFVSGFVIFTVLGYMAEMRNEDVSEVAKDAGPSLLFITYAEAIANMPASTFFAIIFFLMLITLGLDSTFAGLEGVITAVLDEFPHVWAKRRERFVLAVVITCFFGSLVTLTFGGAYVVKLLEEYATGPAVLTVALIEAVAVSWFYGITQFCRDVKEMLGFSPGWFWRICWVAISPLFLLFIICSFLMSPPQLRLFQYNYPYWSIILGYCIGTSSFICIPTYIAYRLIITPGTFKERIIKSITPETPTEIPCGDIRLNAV
Test: Uptake inhibition assay ([3H]5-HT) in HEK293-SERT cells
Format: cell-based
Parameters: expressed in transfected cells
Settings: Uptake inhibition, IC50 values, SERT, HEK293-SERT cells; undecomposed compound dissolved in DMSO, no HCl pre-treatment
OBSERVATION TYPE: IC50 (µM)
Express it in µM; write the number only.

Measured on SERT (Homo sapiens, UniProt P31645), CN(C)CCc1c[nH]c2ccccc12 has a documented IC50 of 12.3

----------
Give IC50 for every item shown.
Target: SERT (Homo sapiens, UniProt P31645)
Assay: Uptake inhibition assay ([3H]5-HT) in HEK293-SERT cells
Assay type: cell-based
Set-up: expressed in transfected cells
Conditions: HEK293-SERT cells; undecomposed compound dissolved in DMSO, no HCl pre-treatment; read-out: Uptake inhibition, IC50 values, SERT
Write down the numeric answer in µM and omit the unit.

The compound identified as CN(C)CCc1c[nH]c2cccc(B3OC(C)(C)C(C)(C)O3)c12 registered its IC50 at 26.7

Record CN(C)CCc1cn(S(=O)(=O)C2CC2)c2ccccc12 , field IC50: 93.8
